Origin of values: patent US8802849B2

Target: c-Raf (Homo sapiens)
Sequence (P04049 whole entry, species assumed): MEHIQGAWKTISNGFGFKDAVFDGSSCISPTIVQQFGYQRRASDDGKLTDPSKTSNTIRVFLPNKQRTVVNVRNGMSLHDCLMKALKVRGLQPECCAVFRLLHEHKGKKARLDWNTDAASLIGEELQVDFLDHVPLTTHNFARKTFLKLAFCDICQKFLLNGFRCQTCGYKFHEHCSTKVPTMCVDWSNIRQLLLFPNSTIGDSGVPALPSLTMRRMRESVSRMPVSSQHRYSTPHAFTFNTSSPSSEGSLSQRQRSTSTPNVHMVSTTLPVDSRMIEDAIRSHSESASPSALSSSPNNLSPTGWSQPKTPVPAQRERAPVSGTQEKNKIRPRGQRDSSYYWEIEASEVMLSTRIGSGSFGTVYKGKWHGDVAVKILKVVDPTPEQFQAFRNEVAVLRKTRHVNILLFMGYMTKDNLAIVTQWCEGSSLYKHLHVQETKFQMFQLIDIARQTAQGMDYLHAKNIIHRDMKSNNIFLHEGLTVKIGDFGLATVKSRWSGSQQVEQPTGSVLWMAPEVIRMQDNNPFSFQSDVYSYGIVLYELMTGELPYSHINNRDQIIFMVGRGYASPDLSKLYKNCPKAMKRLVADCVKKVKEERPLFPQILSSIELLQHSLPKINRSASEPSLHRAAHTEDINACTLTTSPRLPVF
Test: c-Raf kinase assay
Type: biochemical
Settings: 10 μM compound; read-out: c-Raf percent of inhibition
// inhibition at 10 µM lookup, one value per entry
Hi! Could you send only the number? It should be in %, unit omitted.

{"Mol smiles": "FC(F)(F)c1cccc(Nc2nc(C3CC3)nc3sc4c(c23)CCCC4)c1", "Test system": "c-Raf (Homo sapiens)", "Unit annotation": "%", "inhibition at 10 µM": 2}

*Q* For the molecule Brc1cccc(Nc2ncnc3sc4ccccc4c23)c1 , give its reported inhibition at 10 µM.
*A* 3

*Q* Could you please provide reported inhibition at 10 µM for Brc1cccc(Nc2nc(C3CC3)nc3sc4ccccc4c23)c1 ? Thanks!
*A* -8

*Q* Provide inhibition at 10 µM value for the following molecule: N#Cc1cccc(Nc2nc(C3CC3)nc3sc4c(c23)CCCC4)c1
*A* -5

*Q* Identify measured inhibition at 10 µM corresponding to Fc1cccc(Nc2nc(C3CC3)nc3sc4ccccc4c23)c1
*A* -4

###

Target: c-Src (Homo sapiens, UniProt P12931)
Sequence (P12931 whole entry, species assumed): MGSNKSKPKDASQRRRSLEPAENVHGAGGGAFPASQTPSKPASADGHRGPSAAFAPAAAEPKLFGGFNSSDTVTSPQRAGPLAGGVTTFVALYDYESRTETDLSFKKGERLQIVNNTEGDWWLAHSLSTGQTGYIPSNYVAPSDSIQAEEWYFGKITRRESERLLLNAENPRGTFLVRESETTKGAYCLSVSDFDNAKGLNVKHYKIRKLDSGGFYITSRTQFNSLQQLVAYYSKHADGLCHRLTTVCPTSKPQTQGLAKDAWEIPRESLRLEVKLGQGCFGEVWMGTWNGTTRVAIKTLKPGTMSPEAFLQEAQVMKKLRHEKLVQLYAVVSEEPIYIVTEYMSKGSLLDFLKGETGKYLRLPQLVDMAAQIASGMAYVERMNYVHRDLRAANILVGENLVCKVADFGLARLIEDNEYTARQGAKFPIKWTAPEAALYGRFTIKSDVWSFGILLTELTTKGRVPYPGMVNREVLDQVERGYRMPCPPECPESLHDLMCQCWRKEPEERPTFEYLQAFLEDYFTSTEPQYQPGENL
Assay: c-Src kinase assay
Type: biochemical
Details: 10 μM compound; read-out: c-Src percent of inhibition
Each item that follows carries a reported inhibition at 10 µM.

Known inhibition at 10 µM results, listed for orientation:
{"Mol smiles": "COc1cccc(Nc2nc(C3CC3)nc3sc4ccccc4c23)c1", "Recorded value": "23%"}
{"Mol smiles": "Oc1cccc(Nc2nc(C3CC3)nc3sc4c(c23)CCCC4)c1", "Recorded value": "3%"}
{"Mol smiles": "Clc1ccc(Nc2ncnc3sc4c(c23)CCCC4)cc1", "Recorded value": "25%"}

*Q* Kindly indicate its recorded inhibition at 10 µM. Item: FC(F)(F)c1cccc(Nc2nc(C3CC3)nc3sc4c(c23)CCCC4)c1
*A* 8%

*Q* Please give the documented inhibition at 10 µM of Fc1ccccc1Nc1ncnc2sc3c(c12)CCCC3
*A* 13%

###

Biological target: c-Raf (Homo sapiens)
Assay: c-Raf kinase assay
Format: biochemical
Details: 10 μM compound; read-out: c-Raf percent of inhibition
Each record here notes measured inhibition at 10 µM.
Please make sure the unit comes right after the number.

{"Mol smiles": "Nc1cccc(Nc2ncnc3sc4c(c23)CCCC4)c1", "Parameter": "inhibition at 10 µM", "Recorded value": "14%"}
{"Mol smiles": "O=[N+]([O-])c1cccc(Nc2nc(C3CC3)nc3sc4c(c23)CCCC4)c1", "Parameter": "inhibition at 10 µM", "Recorded value": "-7%"}
{"Mol smiles": "Nc1ccc(Nc2ncnc3sc4c(c23)CCCC4)cc1", "Parameter": "inhibition at 10 µM", "Recorded value": "11%"}

Please find the next compound below.
*Q* Return value of inhibition at 10 µM for input N#Cc1cccc(Nc2ncnc3sc4c(c23)CCCC4)c1 , no commentary.
*A* 0%

###

Molecular target: P56Lck (Homo sapiens, UniProt P06239)
Sequence (P06239 whole entry, species assumed): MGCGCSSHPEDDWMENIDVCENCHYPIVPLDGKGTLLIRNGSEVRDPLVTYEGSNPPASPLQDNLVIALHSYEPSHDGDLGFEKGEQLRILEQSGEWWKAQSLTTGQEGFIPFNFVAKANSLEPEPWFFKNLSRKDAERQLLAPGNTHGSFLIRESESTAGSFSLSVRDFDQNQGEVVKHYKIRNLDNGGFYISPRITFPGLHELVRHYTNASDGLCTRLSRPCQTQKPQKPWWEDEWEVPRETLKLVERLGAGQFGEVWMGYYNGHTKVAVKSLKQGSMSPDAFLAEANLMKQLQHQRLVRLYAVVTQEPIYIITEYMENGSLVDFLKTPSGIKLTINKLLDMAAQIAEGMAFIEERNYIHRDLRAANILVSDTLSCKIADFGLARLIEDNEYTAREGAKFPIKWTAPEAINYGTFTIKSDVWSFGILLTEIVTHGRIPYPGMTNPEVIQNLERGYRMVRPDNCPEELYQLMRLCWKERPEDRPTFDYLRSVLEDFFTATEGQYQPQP
Assay: P56Lck kinase assay
Assay type: biochemical
Settings: 10 μM compound; read-out: P56Lck percent of inhibition
Assign T whenever inhibition at 10 µM does not fall below 10%; assign F whenever it does.

Take a look at these entries with their results.
{"Mol smiles": "Fc1cccc(Nc2ncnc3sc4ccccc4c23)c1", "Label value": "F"}
{"Mol smiles": "COc1cccc(Nc2nc(C3CC3)nc3sc4ccccc4c23)c1", "Label value": "F"}
{"Mol smiles": "Fc1cccc(Nc2nc(C3CC3)nc3sc4ccccc4c23)c1", "Label value": "F"}
{"Mol smiles": "Fc1ccc(Nc2ncnc3sc4c(c23)CCCC4)cc1", "Label value": "T"}
{"Mol smiles": "Brc1cccc(Nc2ncnc3sc4c(c23)CCCC4)c1", "Label value": "T"}

*Q* Threshold query (inhibition at 10 µM >= 10%) on Clc1cccc(Nc2ncnc3sc4ccccc4c23)c1
*A* T

*Q* Form field: inhibition at 10 µM at least 10%? Entry: Oc1cccc(Nc2nc(C3CC3)nc3sc4c(c23)CCCC4)c1
*A* F

*Q* Can Clc1ccc(Nc2ncnc3sc4c(c23)CCCC4)cc1 be said to have inhibition at 10 µM at or above 10%?
*A* T

*Q* Is inhibition at 10 µM at least 10%? Consider Fc1cccc(Nc2ncnc3sc4c(c23)CCCC4)c1
*A* T

*Q* Item COc1cccc(Nc2nc(C3CC3)nc3sc4c(c23)CCCC4)c1 with inhibition at 10 µM of 10% or above?
*A* F

###

Target: cMet (Homo sapiens, UniProt P08581)
Sequence (P08581 25-1390): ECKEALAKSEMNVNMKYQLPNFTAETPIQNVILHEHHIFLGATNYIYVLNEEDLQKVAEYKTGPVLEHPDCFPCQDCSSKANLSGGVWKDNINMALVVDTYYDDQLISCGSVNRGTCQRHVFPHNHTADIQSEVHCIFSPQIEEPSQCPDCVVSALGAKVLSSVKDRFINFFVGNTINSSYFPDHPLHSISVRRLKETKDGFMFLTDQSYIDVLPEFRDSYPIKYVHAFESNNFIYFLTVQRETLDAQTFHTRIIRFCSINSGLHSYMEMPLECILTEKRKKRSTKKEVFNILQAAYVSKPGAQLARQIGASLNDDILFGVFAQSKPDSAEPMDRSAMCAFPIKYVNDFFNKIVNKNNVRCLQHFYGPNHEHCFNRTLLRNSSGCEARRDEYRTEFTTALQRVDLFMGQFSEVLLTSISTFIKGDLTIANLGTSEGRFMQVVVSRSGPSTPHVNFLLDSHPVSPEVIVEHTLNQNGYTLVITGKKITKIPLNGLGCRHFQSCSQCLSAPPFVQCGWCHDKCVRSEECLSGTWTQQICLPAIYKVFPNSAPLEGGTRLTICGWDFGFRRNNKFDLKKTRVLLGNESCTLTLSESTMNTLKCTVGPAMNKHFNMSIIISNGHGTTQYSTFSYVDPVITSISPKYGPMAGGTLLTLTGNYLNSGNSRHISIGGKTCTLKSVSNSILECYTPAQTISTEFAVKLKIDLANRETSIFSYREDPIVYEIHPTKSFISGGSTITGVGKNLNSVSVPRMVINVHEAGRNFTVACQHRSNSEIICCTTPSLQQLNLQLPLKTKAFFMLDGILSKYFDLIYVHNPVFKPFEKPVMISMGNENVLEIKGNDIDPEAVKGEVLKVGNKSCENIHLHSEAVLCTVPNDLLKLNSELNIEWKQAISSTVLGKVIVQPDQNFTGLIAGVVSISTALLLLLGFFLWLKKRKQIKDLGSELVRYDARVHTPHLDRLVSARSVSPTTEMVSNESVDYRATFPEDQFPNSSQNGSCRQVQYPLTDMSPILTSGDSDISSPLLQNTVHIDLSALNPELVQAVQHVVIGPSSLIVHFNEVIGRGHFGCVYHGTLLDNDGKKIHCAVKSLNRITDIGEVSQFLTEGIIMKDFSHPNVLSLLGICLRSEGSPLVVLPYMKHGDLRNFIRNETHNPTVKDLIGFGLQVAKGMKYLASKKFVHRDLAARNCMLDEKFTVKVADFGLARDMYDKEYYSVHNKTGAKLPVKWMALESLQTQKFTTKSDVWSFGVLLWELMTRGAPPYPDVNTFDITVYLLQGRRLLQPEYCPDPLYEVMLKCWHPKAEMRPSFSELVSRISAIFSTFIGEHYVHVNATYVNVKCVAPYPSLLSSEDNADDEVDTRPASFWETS
Experiment: cMet kinase assay
Type: biochemical
Conditions: 10 μM compound; read-out: cMet percent of inhibition
The compounds listed here are annotated with their inhibition at 10 µM.
Please append the unit to your numeric answer.

Use the examples below as a reference point.
{"Mol smiles": "COc1cccc(Nc2nc(C3CC3)nc3sc4ccccc4c23)c1", "inhibition at 10 µM": "-2%"}
{"Mol smiles": "COc1cccc(Nc2nc(C3CC3)nc3sc4c(c23)CCCC4)c1", "inhibition at 10 µM": "-6%"}
{"Mol smiles": "Fc1ccc(Nc2ncnc3sc4c(c23)CCCC4)cc1", "inhibition at 10 µM": "4%"}

*Q* Give the reported value of inhibition at 10 µM for this record: Fc1cccc(Nc2nc(C3CC3)nc3sc4ccccc4c23)c1
*A* 0%

*Q* Read off the recorded inhibition at 10 µM for Clc1ccc(Nc2ncnc3sc4c(c23)CCCC4)cc1
*A* -7%

*Q* Report inhibition at 10 µM, nothing else, for this compound: Nc1ccc(Nc2ncnc3sc4c(c23)CCCC4)cc1
*A* 9%

*Q* Supply inhibition at 10 µM value. Item: N#Cc1cccc(Nc2nc(C3CC3)nc3sc4c(c23)CCCC4)c1
*A* -7%

*Q* Give me measured inhibition at 10 µM, please, for this compound: Oc1cccc(Nc2nc(C3CC3)nc3sc4ccccc4c23)c1
*A* -12%

*Q* Output inhibition at 10 µM of Nc1cccc(Nc2ncnc3sc4c(c23)CCCC4)c1
*A* 2%

*Q* Provide only the value of recorded inhibition at 10 µM for Fc1cccc(Nc2ncnc3sc4c(c23)CCCC4)c1
*A* -10%

*Q* For the compound Clc1cccc(Nc2ncnc3sc4ccccc4c23)c1 , report inhibition at 10 µM.
*A* 5%

*Q* Please give measured inhibition at 10 µM of the following entry: Brc1cccc(Nc2nc(C3CC3)nc3sc4ccccc4c23)c1
*A* -7%

*Q* Provide inhibition at 10 µM value for the following compound: Oc1cccc(Nc2nc(C3CC3)nc3sc4c(c23)CCCC4)c1
*A* 3%

*Q* Return the recorded inhibition at 10 µM value; entry: O=[N+]([O-])c1cccc(Nc2nc(C3CC3)nc3sc4c(c23)CCCC4)c1
*A* -4%

###

Items are presented alongside their recorded inhibition at 10 µM.
Molecular target: UniProt:P00519
Sequence (P00519 whole entry, species assumed): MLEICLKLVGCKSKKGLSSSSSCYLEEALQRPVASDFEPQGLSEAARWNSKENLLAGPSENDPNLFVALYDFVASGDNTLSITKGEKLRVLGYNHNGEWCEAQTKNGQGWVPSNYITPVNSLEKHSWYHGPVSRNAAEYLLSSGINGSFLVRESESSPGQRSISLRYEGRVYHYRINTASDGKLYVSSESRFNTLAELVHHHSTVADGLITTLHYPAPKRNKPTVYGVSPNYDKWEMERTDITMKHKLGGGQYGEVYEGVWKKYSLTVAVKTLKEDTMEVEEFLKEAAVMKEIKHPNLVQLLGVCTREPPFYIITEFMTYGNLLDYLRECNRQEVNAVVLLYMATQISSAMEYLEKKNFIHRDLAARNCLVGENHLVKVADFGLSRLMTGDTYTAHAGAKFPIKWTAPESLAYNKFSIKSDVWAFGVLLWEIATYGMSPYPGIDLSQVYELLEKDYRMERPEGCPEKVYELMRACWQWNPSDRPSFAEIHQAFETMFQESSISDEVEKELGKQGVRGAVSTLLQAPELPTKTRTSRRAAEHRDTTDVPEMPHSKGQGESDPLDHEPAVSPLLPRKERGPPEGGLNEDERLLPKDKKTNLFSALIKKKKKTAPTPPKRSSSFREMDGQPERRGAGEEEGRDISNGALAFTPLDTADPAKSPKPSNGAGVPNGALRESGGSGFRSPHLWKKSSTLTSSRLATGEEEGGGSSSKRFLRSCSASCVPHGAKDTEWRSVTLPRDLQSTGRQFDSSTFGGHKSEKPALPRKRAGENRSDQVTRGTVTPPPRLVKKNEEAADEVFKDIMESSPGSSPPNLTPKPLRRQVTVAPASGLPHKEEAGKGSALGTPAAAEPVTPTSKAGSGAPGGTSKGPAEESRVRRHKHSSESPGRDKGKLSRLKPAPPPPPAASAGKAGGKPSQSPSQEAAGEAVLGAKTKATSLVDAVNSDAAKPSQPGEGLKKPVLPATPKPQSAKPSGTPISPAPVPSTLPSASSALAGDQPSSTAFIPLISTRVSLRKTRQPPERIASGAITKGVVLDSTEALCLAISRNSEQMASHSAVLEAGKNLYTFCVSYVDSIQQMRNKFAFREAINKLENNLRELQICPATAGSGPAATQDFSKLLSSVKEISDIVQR
Assay: Abl kinase assay
Assay type: biochemical
Conditions: 10 μM compound; read-out: Abl percent of inhibition
Express your answer in %, writing the number without its unit.

In the examples that follow, each entry is paired with its recorded inhibition at 10 µM.
{"Compound": "Brc1cccc(Nc2ncnc3sc4c(c23)CCCC4)c1 [Compound 3]", "Unit annotation": "%", "inhibition at 10 µM": -36}
{"Compound": "Fc1cccc(Nc2ncnc3sc4c(c23)CCCC4)c1 [Compound 2]", "Unit annotation": "%", "inhibition at 10 µM": -19}
{"Compound": "Fc1ccccc1Nc1ncnc2sc3c(c12)CCCC3 [Compound 1]", "Unit annotation": "%", "inhibition at 10 µM": 10}
{"Compound": "Nc1cccc(Nc2ncnc3sc4c(c23)CCCC4)c1 [Compound 4]", "Unit annotation": "%", "inhibition at 10 µM": -7}

*Q* Give the value of inhibition at 10 µM reported for the following: N#Cc1cccc(Nc2ncnc3sc4c(c23)CCCC4)c1 [Compound 5]
*A* -7

*Q* Identify inhibition at 10 µM associated with the compound Clc1ccc(Nc2ncnc3sc4c(c23)CCCC4)cc1 [Compound 7]
*A* -9

###

Entries and their melting point
Give just the numeric value; °C need not be written.

{"Mol smiles": "Oc1cccc(Nc2nc(C3CC3)nc3sc4ccccc4c23)c1", "Parameter": "melting point", "Recorded value": 222}
{"Mol smiles": "COc1cccc(Nc2nc(C3CC3)nc3sc4ccccc4c23)c1", "Parameter": "melting point", "Recorded value": 198}
{"Mol smiles": "Clc1cccc(Nc2nc(C3CC3)nc3sc4ccccc4c23)c1", "Parameter": "melting point", "Recorded value": 188}
{"Mol smiles": "N#Cc1cccc(Nc2ncnc3sc4c(c23)CCCC4)c1", "Parameter": "melting point", "Recorded value": 194.6}
{"Mol smiles": "Clc1cccc(Nc2ncnc3sc4ccccc4c23)c1", "Parameter": "melting point", "Recorded value": 168}

Kindly review the next compound as well.
*Q* Complete the entry with melting point for Clc1cccc(Nc2nc(C3CC3)nc3sc4c(c23)CCCC4)c1
*A* 208.6
